# System: HOP-62
# assay_protocol: NCI tumour cell line growth inhibition, 48 h
Active and inactive are the calls of the source. Cut-off read from the data, not from the text of the source: active = GI50 up to about 1.1 µM and inactive = higher.
The reply should name one outcome from T for active, F for inactive

Solved cases below.
compound_smiles	label
COc1cc2c(cc1OCCCCCOc1cc3c(cc1OC)C(=O)N1CCC[C@H]1C(=O)N3)N=C[C@@H]1CCCN1C2=O	T
O=C(Nc1ccc(N=C=S)cc1Cl)c1cc(Br)cc(Br)c1O	F

Would you kindly look at the next entry?
Short answer needed: outcome of this test for O=C1CSc2nnc(CCCCCCCCc3nnc4n3NC(=O)CS4)n2N1 ? F

###

Quick list: GI50 per entry.
# Tested on: M14
# assay_protocol: NCI tumour cell line growth inhibition, 48 h
Calls of active or inactive are those of the source. Cut-off read from the data, not from the text of the source: active = GI50 up to about 1.1 µM and inactive = higher. Where a SMILES comes first, the peptide text is derived from it. The star is where a group is joined. Fmoc = O=C(OCC1c2ccccc2-c2ccccc21)*; OtBu = CC(C)(C)O*

compound	GI50
CCCCCC(/C=C/C1CCC(=O)C1)OCOCCOC (stereo not given)	34 µM (inactive)
CC(=O)OCc1cc(=O)n2c([nH]c3ccccc32)c1C#N	61.8 µM (inactive)
CCOC(=O)C1(C(=O)OCC)C[C@@H](C)[C@@H](O)C1	> 100 µM (inactive)
OCC1C2C=CC(O2)[C@H]1CO (stereo not given in full)	> 100 µM (inactive)

Next compound, GI50 to be filled in.
Data request, read-out GI50, for CC(C)C(NC(=O)OCC1c2ccccc2-c2ccccc21)C(=O)NC(CCC(=O)OC(C)(C)C)C(=O)OC(C)(C)C (stereo not given) (Fmoc-Val-Glu(OtBu)-OtBu; configuration not given here) > 100 µM (inactive)

Sourced from ChEMBL document CHEMBL1201862
